- System: LOC_OS03G50810-cb003;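 note: purified Escherichia coli-expressed rice kinase domain construct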
- assay.notes: thermal shift delta Tm vs DMSO control; higher = stronger stabilization (binding)
- test.settings: 12.5 µM; protein concentration 2 µM
endpoint.name: thermal shift delta Tm (°C)
Use °C as the unit, but write only the number.

[
  {
    "compound": "C#Cc1cccc(Nc2ncnc3cc4c(cc23)OCCOCCOCCO4)c1 [Icotinib]",
    "endpoint.unit": "°C",
    "recorded.measurement": 1.31
  },
  {
    "compound": "Cn1cnc2c(F)c(Nc3ccc(Br)cc3F)c(C(=O)NOCCO)cc21",
    "endpoint.unit": "°C",
    "recorded.measurement": 0.44
  },
  {
    "compound": "CN1CCC(CNc2ccc3ncc(-c4cccc(OC(F)(F)F)c4)n3n2)CC1 [SGI-1776 free base]",
    "endpoint.unit": "°C",
    "recorded.measurement": 3.02
  },
  {
    "compound": "CC(C)c1c2cc(-c3ccnc(NC4CCC(NC5CCOCC5)CC4)n3)ccc2nn1C (centres undefined)",
    "endpoint.unit": "°C",
    "recorded.measurement": 1.01
  },
  {
    "compound": "CC1(C)OCCn2c1nc1c(N3CCOCC3)nc(-c3cnc(N)nc3)nc12",
    "endpoint.unit": "°C",
    "recorded.measurement": 0.33
  },
  {
    "compound": "O=C1NC(=O)C(c2ccccc2[N+](=O)[O-])=C1Nc1ccc(O)c(Cl)c1",
    "endpoint.unit": "°C",
    "recorded.measurement": 0.88
  }
]

// query // fetch LOC_OS03G50810-cb003 thermal shift delta Tm for CN1CCN(C2CCN(C(=O)Nc3cc(Oc4ccc(NC(=O)C5(C(=O)Nc6ccc(F)cc6)CC5)c(F)c4)ccn3)CC2)CC1 [Golvatinib (E7050)]
// result 0.33

// query Identify the measured thermal shift delta Tm of COC(=O)N[C@@H](C)CNc1nccc(-c2cn(C(C)C)nc2-c2cc(Cl)cc(NS(C)(=O)=O)c2F)n1 [Encorafenib (LGX818)] for LOC_OS03G50810-cb003.
// result 0.12

// query // fetch LOC_OS03G50810-cb003 thermal shift delta Tm for O=c1cc(N2CCOCC2)oc2c(-c3cccc4c3sc3ccccc34)cccc12
// result 0.32

// query I'm curious: which thermal shift delta Tm was measured for Cc1ccc(C(=O)Nc2cccc(C(F)(F)F)c2)cc1Nc1nc(-c2cccnc2)nc2c1cnn2C tested on LOC_OS03G50810-cb003?;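 note: purified Escherichia coli-expressed rice kinase domain construct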
// result 0.32

// query For the record Cc1cccc(CC(=O)N2CCc3c2ccc(-c2cn(C)c4ncnc(N)c24)c3F)n1 , what value of thermal shift delta Tm is listed for LOC_OS03G50810-cb003?
// result 0.3

// query Any idea what thermal shift delta Tm came out for COc1cc2c(cc1OC)[C@@H]1C(=O)c3ccc4c(c3O[C@@H]1CO2)C=CC(C)(C)O4 [Deguelin] on LOC_OS03G50810-cb003?
// result 0.24

// query Which measured thermal shift delta Tm belongs to CN(C)CCOc1ccc(-c2nc(-c3ccncc3)c(-c3ccc4c(c3)CC/C4=N\O)[nH]2)cc1 , tested on LOC_OS03G50810-cb003?;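 note: purified Escherichia coli-expressed rice kinase domain construct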
// result 0.55

// query Kindly state the measured thermal shift delta Tm obtained for C[C@@H](N)c1ccc(C(=O)Nc2ccnc3[nH]ccc23)cc1 with LOC_OS03G50810-cb003.
// result 0.77

// query Observed thermal shift delta Tm on LOC_OS03G50810-cb003 for Cc1[nH]c(/C=C2\C(=O)Nc3ccccc32)c(C)c1CCC(=O)O [Orantinib (TSU-68, SU6668)] , please.
// result 0

// query Given the entry C=C[C@@](C)(/C=C/c1ccc(O)cc1)CCC=C(C)C [Bakuchiol] , what thermal shift delta Tm was observed with LOC_OS03G50810-cb003?
// result 0.28

// query Provide value of thermal shift delta Tm for this record tested with LOC_OS03G50810-cb003: CNC(=O)c1cc(Oc2ccc(NC(=O)Nc3cc(C(C)(C)C)nn3-c3ccc4ncccc4c3)c(F)c2)ccn1 [Rebastinib (DCC-2036)]
// result 5.06

// query Lookup: thermal shift delta Tm / LOC_OS03G50810-cb003 / COc1ccc(CCNCc2ccc(OCc3ccc(Cl)nc3)c(OC)c2)cc1OC
// result 0.18

// query Notebook entry, LOC_OS03G50810-cb003 assay: thermal shift delta Tm of Nc1ncnc2n[nH]c(Nc3ccc(F)cc3)c12 = ?
// result 0.92

// query So what thermal shift delta Tm did Cc1ccc(NC(=O)c2cccc(C(C)(C)C#N)c2)cc1Nc1ccc2ncn(C)c(=O)c2c1 get with LOC_OS03G50810-cb003?
// result 0.54

// query Lab note: need thermal shift delta Tm with LOC_OS03G50810-cb003 for entry CCS(=O)(=O)Nc1ccc2c(c1)/C(=C(/Nc1ccc(CN3CCCCC3)cc1)c1ccccc1)C(=O)N2 [Hesperadin] , please look it up.
// result 11.8

// query Entry Nc1cccc(S(=O)(=O)N2CCCN(S(=O)(=O)c3ccc4c(c3)OCCO4)CC2)c1 , system LOC_OS03G50810-cb003: what thermal shift delta Tm was measured?;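 note: purified Escherichia coli-expressed rice kinase domain construct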
// result 0.28

// query Notebook: pull reported thermal shift delta Tm for LOC_OS03G50810-cb003, entry CCc1cccc(CC)c1NC(=O)N1Cc2[nH]nc(NC(=O)c3ccc(N4CCN(C)CC4)cc3)c2C1
// result 2.53

// query Form field - read-out: thermal shift delta Tm; system: LOC_OS03G50810-cb003; submitted item: COc1cc(F)c(F)c(Nc2ccc(I)cc2F)c1NS(=O)(=O)C1(C[C@H](O)CO)CC1 [Refametinib (RDEA119, Bay 86-9766)];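 note: purified Escherichia coli-expressed rice kinase domain construct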
// result 0.41
